Cited source: PubChem BioAssay (NCI)

- Tested on: CCRF-CEM leukemia
- ASSAY NOTES: NCI-60 one-dose screen, 48 h (100 = growth as untreated, 0 = no growth, -100 = all killed)
- MEASUREMENT SETUP: 10 µM unless noted
This is part of a sample that, as a whole, favours compounds with a hit. Of some 83,000 tested, about 20% had one in any assay.
READOUT KIND: growth (%)
// return numeric value only (unit: %, not printed)

> print(dat)
                                   compound       study.system  output.unit  obs.value
1  Oc1c(I)cc(I)cc1CNCCCN(Cc1ccccn1)Cc1ccccn1  CCRF-CEM leukemia            %       3.65
2  CCCCOc1nc2ccc(OC)cc2cc1-c1cc(-c2ccc(Cl)cc2)nc(-c2ccc(Cl)cc2)c1  CCRF-CEM leukemia            %        103
3  CC1=C(C)C(=O)C(Nc2cccc(C(=O)OC(C)(C)C)c2)=C(Br)C1=O  CCRF-CEM leukemia            %       8.53
4  O=C(/C=C/c1ccc([N+](=O)[O-])o1)NNC(=O)c1cc2ccccc2cc1O  CCRF-CEM leukemia            %       6.58
5  Cc1cccc2c3c(sc12)C(c1ccc(F)cc1)C(C#N)=C(N)O3 (stereo not given)  CCRF-CEM leukemia            %       13.8
6  CCCCCCCCCCCCCCCCCCOc1ccccc1CCCOP(=O)(O)OCC[N+](C)(C)C  CCRF-CEM leukemia            %         34
7  O=C1NC(=O)C(Cn2cnc3ccccc32)N1 (stereo not given)  CCRF-CEM leukemia            %        102
8  CN(C)c1ccc(/C=N\Nc2cc(=O)[nH]c3ccc(Cl)cc23)cc1  CCRF-CEM leukemia            %       95.4
9  COc1cccc(-c2nc(-c3ccc(NS(=O)(=O)c4ccccc4)cc3)[nH]c2-c2ccnc(Br)c2)c1  CCRF-CEM leukemia            %       18.9

Could you now look at the following compound, please?
Kindly note the recorded growth for Cc1nc2ccccc2n1CC1C(=O)NC(=O)NC1=O , which is 103

* * *

- Test system: HT29 colon
- ASSAY NOTES: NCI-60 one-dose screen, 48 h (100 = growth as untreated, 0 = no growth, -100 = all killed)
- MEASUREMENT SETUP: 10 µM unless noted
The panel holds about 83,000 compounds, 20% with a hit somewhere; the sample as a whole holds those more often. Active and inactive are the calls of the source. The calls were made as follows: active = growth percent below 10; inactive = the rest.
READOUT KIND: growth

> print(dat)
                                   compound  readout.kind         obs.value
1  COc1ccc2c(c1)nc(NNC(=O)c1cnccn1)c1cccn12        growth  27.2% (inactive)

Kindly note the recorded growth for COc1ccc2cc(C(C)C(=O)Nc3ccc(-c4n[nH]c(=S)n4C4CCCCC4)cc3)ccc2c1 (stereo unspecified) , which is 85.1% (inactive)

Kindly note the recorded growth for Cc1cccc(OCC(O)CN2CCN(c3ccc(Cl)cc3)CC2)c1 (stereo unspecified) , which is 104% (inactive)

Kindly note the recorded growth for CCc1cccc2c1S/C(=C/c1ccc(OC)cc1)C2=O , which is 84.5% (inactive)

Kindly note the recorded growth for CN1CCN(c2ccc(-c3ccc4ncc(C#N)c(Nc5ccc(F)c(Cl)c5)c4c3)cn2)CC1 , which is 36.6% (inactive)

Kindly note the recorded growth for COc1cc(/C=C/c2ccccc2)cc(OC)c1 , which is 90.4% (inactive)
